Value source: ChEMBL document CHEMBL1125273

Assay: Antitumor activity in vivo in CD2F1 mice measured in terms of percent increase in lifespan calculated at a dose of 6.25 mg/kg intraperitoneally on day one.
Type: functional
Conditions: Mus musculus, ip, route intraperitoneal
endpoint: ILS at 6.25 mg/kg (%)

compound: COC1=C(SC(C)C)C(=O)C2=C(C[C@H]3[C@H]4[C@H](C(=O)O)C[C@@H](C5OC[C@@H]2N53)N4C)C1=O (stereo partly drawn)
assayValue: 30

compound: COC1=C(SC(C)C)C(=O)C2=C(C1=O)[C@@H]1COC3[C@@H]4C[C@@H](C(=O)O)[C@H]([C@H](C2)N31)N4C (stereo partly drawn)
assayValue: 31

compound: CSc1c(O)c2c(c(O)c1SC)[C@H](CO)N1C(C#N)[C@@H]3C[C@@H](C(=O)O)[C@H]([C@@H]1C2)N3C (stereo partly drawn)
assayValue: 47

compound: CCSC1=C(OC)C(=O)C2=C(C[C@H]3[C@H]4[C@H](C(=O)O)C[C@@H](C(C#N)N3[C@H]2CO)N4C)C1=O (stereo partly drawn)
assayValue: 29

compound: CSC1=C(SC)C(=O)C2=C(C[C@H]3[C@H]4[C@H](C(=O)O)C[C@@H](C5OC[C@@H]2N53)N4C)C1=O (stereo partly drawn)
assayValue: 48

compound: CC(C)SC1=C(SC(C)C)C(=O)C2=C(C[C@H]3[C@H]4[C@H](C(=O)O)C[C@@H](C5OC[C@@H]2N53)N4C)C1=O (stereo partly drawn)
assayValue: 69

compound: CCSC1=C(SCC)C(=O)C2=C(C[C@H]3[C@H]4[C@H](C(=O)O)C[C@@H](C5OC[C@@H]2N53)N4C)C1=O (stereo partly drawn)
assayValue: 64

compound: CN1[C@@H]2[C@H](C(=O)O)C[C@H]1C(C#N)N1[C@@H](CO)c3c(O)c(SCCO)c(SCCO)c(O)c3C[C@@H]21 (stereo partly drawn)
assayValue: 18

----------
Test: Ratio of the ILS tested compound/quinocarcin was determined for day one in CD2F1 mice.
Assay type: functional, Mus musculus
endpoint: R

molecule: CC(C)SC1=C(SC(C)C)C(=O)C2=C(C[C@H]3[C@H]4[C@H](C(=O)O)C[C@@H](C5OC[C@@H]2N53)N4C)C1=O (stereo partly specified)
assayValue: 1.57
//
molecule: CCCSC1=C(SCCC)C(=O)C2=C(C[C@H]3[C@H]4[C@H](C(=O)O)C[C@@H](C5OC[C@@H]2N53)N4C)C1=O (stereo partly specified)
assayValue: 1.21
//
molecule: CN1[C@@H]2[C@H](C(=O)O)C[C@H]1C(C#N)N1[C@@H](CO)C3=C(C[C@@H]21)C(=O)C(SC(C)(C)C)=C(SC(C)(C)C)C3=O (stereo partly specified)
assayValue: 1.26
//
molecule: COC1=C(SC(C)C)C(=O)C2=C(C1=O)[C@@H]1COC3[C@@H]4C[C@@H](C(=O)O)[C@H]([C@H](C2)N31)N4C (stereo partly specified)
assayValue: 1.29
//
molecule: CC(C)Sc1c(O)c2c(c(O)c1SC(C)C)[C@H](CO)N1C(C#N)[C@@H]3C[C@@H](C(=O)O)[C@H]([C@@H]1C2)N3C (stereo partly specified)
assayValue: 1
//
molecule: CSC1=C(SC)C(=O)C2=C(C[C@H]3[C@H]4[C@H](C(=O)O)C[C@@H](C(C#N)N3[C@H]2CO)N4C)C1=O (stereo partly specified)
assayValue: 1.23

----------
Assay: Ratio of the ILS tested compound/quinocarcin was determined for day one in CD2F1 mice.
Assay type: functional, Mus musculus
Label true (1) when R is strictly below 1; otherwise label false (0).

molecule: CCSc1c(O)c2c(c(O)c1OC)[C@H](CO)N1C(C#N)[C@@H]3C[C@@H](C(=O)O)[C@H]([C@@H]1C2)N3C (stereo partly drawn)
groupLabel: true (1)

molecule: CSc1c(O)c2c(c(O)c1SC)[C@@H]1COC3[C@@H]4C[C@@H](C(=O)O)[C@H]([C@H](C2)N31)N4C (stereo partly drawn)
groupLabel: false (0)

molecule: CCSC1=C(SCC)C(=O)C2=C(C[C@H]3[C@H]4[C@H](C(=O)O)C[C@@H](C5OC[C@@H]2N53)N4C)C1=O (stereo partly drawn)
groupLabel: false (0)

molecule: CCOC(=O)CSc1c(O)c2c(c(O)c1SCC(=O)OCC)[C@H](CO)N1C(C#N)[C@@H]3C[C@@H](C(=O)O)[C@H]([C@@H]1C2)N3C (stereo partly drawn)
groupLabel: true (1)

molecule: COC1=C(SC(C)C)C(=O)C2=C(C[C@H]3[C@H]4[C@H](C(=O)O)C[C@@H](C5OC[C@@H]2N53)N4C)C1=O (stereo partly drawn)
groupLabel: false (0)

molecule: CCSC1=C(OC)C(=O)C2=C(C[C@H]3[C@H]4[C@H](C(=O)O)C[C@@H](C(C#N)N3[C@H]2CO)N4C)C1=O (stereo partly drawn)
groupLabel: true (1)

molecule: COC1=C(SC(C)C)C(=O)C2=C(C1=O)[C@H](CO)N1C(C#N)[C@@H]3C[C@@H](C(=O)O)[C@H]([C@@H]1C2)N3C (stereo partly drawn)
groupLabel: true (1)

molecule: CC(C)SC1=C(SC(C)C)C(=O)C2=C(C[C@H]3[C@H]4[C@H](C(=O)O)C[C@@H](C(C#N)N3[C@H]2CO)N4C)C1=O (stereo partly drawn)
groupLabel: false (0)

molecule: CSc1c(O)c2c(c(O)c1SC)[C@H](CO)N1C(C#N)[C@@H]3C[C@@H](C(=O)O)[C@H]([C@@H]1C2)N3C (stereo partly drawn)
groupLabel: false (0)

molecule: CCCSC1=C(SCCC)C(=O)C2=C(C[C@H]3[C@H]4[C@H](C(=O)O)C[C@@H](C(C#N)N3[C@H]2CO)N4C)C1=O (stereo partly drawn)
groupLabel: false (0)

molecule: CN1[C@@H]2[C@H](C(=O)O)C[C@H]1C(C#N)N1[C@@H](CO)c3c(O)c(SCCO)c(SCCO)c(O)c3C[C@@H]21 (stereo partly drawn)
groupLabel: true (1)

molecule: CCSC1=C(SCC)C(=O)C2=C(C[C@H]3[C@H]4[C@H](C(=O)O)C[C@@H](C(C#N)N3[C@H]2CO)N4C)C1=O (stereo partly drawn)
groupLabel: false (0)

----------
Assay: Ratio of the ILS tested compound/quinocarcin was determined for day one in CD2F1 mice.
Type: functional, Mus musculus
endpoint: R

compound: CN1[C@@H]2[C@H](C(=O)O)C[C@H]1C(C#N)N1[C@@H](CO)C3=C(C[C@@H]21)C(=O)C(SCCO)=C(SCCO)C3=O (stereo partly drawn)
assayValue: 0.62
//
compound: CCSC1=C(OC)C(=O)C2=C(C1=O)[C@H](CO)N1C(C#N)[C@@H]3C[C@@H](C(=O)O)[C@H]([C@@H]1C2)N3C (stereo partly drawn)
assayValue: 0.72
//
compound: CSC1=C(SC)C(=O)C2=C(C[C@H]3[C@H]4[C@H](C(=O)O)C[C@@H](C5OC[C@@H]2N53)N4C)C1=O (stereo partly drawn)
assayValue: 1.85

----------
Assay: Antitumor activity in vivo in CD2F1 mice measured in terms of percent increase in lifespan calculated at a dose of 6.25 mg/kg intraperitoneally on days 1-5.
Assay type: functional
Conditions: Mus musculus, ip, route intraperitoneal
Documented ILS at 6.25 mg/kg across a set of compounds

compound: CCSC1=C(OC)C(=O)C2=C(C1=O)[C@H](CO)N1C(C#N)[C@@H]3C[C@@H](C(=O)O)[C@H]([C@@H]1C2)N3C (stereo partly drawn)
ILS at 6.25 mg/kg, %: 59
//
compound: CCSc1c(O)c2c(c(O)c1OC)[C@H](CO)N1C(C#N)[C@@H]3C[C@@H](C(=O)O)[C@H]([C@@H]1C2)N3C (stereo partly drawn)
ILS at 6.25 mg/kg, %: 58
//
compound: CCCSC1=C(SCCC)C(=O)C2=C(C[C@H]3[C@H]4[C@H](C(=O)O)C[C@@H](C5OC[C@@H]2N53)N4C)C1=O (stereo partly drawn)
ILS at 6.25 mg/kg, %: 86
//
compound: CCSC1=C(OC)C(=O)C2=C(C[C@H]3[C@H]4[C@H](C(=O)O)C[C@@H](C(C#N)N3[C@H]2CO)N4C)C1=O (stereo partly drawn)
ILS at 6.25 mg/kg, %: 51
//
compound: CSC1=C(SC)C(=O)C2=C(C[C@H]3[C@H]4[C@H](C(=O)O)C[C@@H](C(C#N)N3[C@H]2CO)N4C)C1=O (stereo partly drawn)
ILS at 6.25 mg/kg, %: 71
//
compound: CCCSC1=C(SCCC)C(=O)C2=C(C[C@H]3[C@H]4[C@H](C(=O)O)C[C@@H](C(C#N)N3[C@H]2CO)N4C)C1=O (stereo partly drawn)
ILS at 6.25 mg/kg, %: 42
//
compound: CN1[C@@H]2[C@H](C(=O)O)C[C@H]1C(C#N)N1[C@@H](CO)c3c(O)c(SCCO)c(SCCO)c(O)c3C[C@@H]21 (stereo partly drawn)
ILS at 6.25 mg/kg, %: 41
//
compound: CC(C)Sc1c(O)c2c(c(O)c1SC(C)C)[C@H](CO)N1C(C#N)[C@@H]3C[C@@H](C(=O)O)[C@H]([C@@H]1C2)N3C (stereo partly drawn)
ILS at 6.25 mg/kg, %: 102
